# assay-remarks: Half life in dog at 1 mg/kg,iv administration measured after 24 hrs by LC-MS/MS analysis
# Type: ADME, organism-based, Canis lupus familiaris
# stated-conditions: in vivo
reported-endpoint: half-life (h)
A number alone suffices; assume h.

What the record says about `CCS(=O)(=O)c1ccc(CC(=O)Nc2cc(Cl)c(-c3ccc(OC(C)C)c(C#N)c3)c(Cl)c2)cc1` : half-life is 46.5

---

Would you kindly list microsomal CLint for each of these molecules?
# assay-remarks: Metabolic Stability in human liver microsome assessed as microsomal intrinsic clearance at […] measured upto 60 mins by HPLC-MS/MS analysis
# Format: ADME
# stated-conditions: liver microsomes, read-out: CLH

get_value(item= `CCS(=O)(=O)c1ccc(CC(=O)Nc2cc(Cl)c(-c3ccc(CC(C)C)c(C#N)c3)c(Cl)c2)cc1` , readout=microsomal CLint) returns 533 µL/min/mg

Sure, the documented microsomal CLint for `CCS(=O)(=O)c1ccc(CC(=O)Nc2cc(Cl)c(-c3ccc(CC(C)C)c(C#N)c3)c(Cl)c2)nc1` is 150 µL/min/mg

get_value(item= `CCS(=O)(=O)c1ccc(CC(=O)Nc2cc(Cl)c(-c3ccc(OC(C)C)c(C#N)c3)c(Cl)c2)cc1` , readout=microsomal CLint) returns < 9.6 µL/min/mg

Lab book: microsomal CLint of CCC(C)Cc1ccc(-c2c(Cl)cc(NC(=O)Cc3ccc(S(=O)(=O)CC)cc3)cc2Cl)cc1C#N (stereo unspecified) noted as 81.9 µL/min/mg

response.value for `CCS(=O)(=O)c1ccc(CNC(=O)Nc2cc(Cl)c(-c3ccc(CC(C)C)c(C#N)c3)c(Cl)c2)cc1` (field: microsomal CLint) = 354 µL/min/mg

Field microsomal CLint (entry `CCS(=O)(=O)c1ccc(CNC(=O)c2cc(Cl)c(-c3ccc(CC(C)C)c(C#N)c3)c(Cl)c2)cc1` ) reads > 554 µL/min/mg
